The measurements presented in this section are drawn from PubChem BioAssay.

experiment-notes: MM1S myeloma cell viability, profiling panel, resazurin fluorescence, basal, 24 h, PK04 Diversity Set (AID 1174);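 note: MM1S multiple myeloma cell line; test concentration not given here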
assay-context: higher = more signal, called active from +8 up or from −8 down
property: z-score
Answers are plain numbers.

# annotated cases, reported z-score shown
>  <smiles-notation>
CC1=C([C@H](O)CCc2ccccc2)[C@H](CO)[C@@H]2C(=O)N(C)C(=O)[C@@H]2C1

>  <property>
z-score

>  <meas-value>
-0.382

$$$$
>  <smiles-notation>
COC(=O)[C@@]1(Cc2ccccc2)[C@H]2c3cc(C(=O)N(C)C)n(CCN4CNCC4=O)c3C[C@H]2CN1C(=O)c1ccccc1

>  <property>
z-score

>  <meas-value>
-0.473

$$$$
>  <smiles-notation>
C[C@@H]1ON(c2ccc(C(=O)OC(C)(C)C)cc2)[C@H](c2ccc(O)cc2)[C@H]1C(=O)N1C(=O)OC[C@H]1Cc1ccccc1

>  <property>
z-score

>  <meas-value>
-1.04

$$$$

Okay, next one:
Challenge: What measured z-score goes with `C[N+](C)(C)CCCCCCNC(=O)[C@H]1C[C@H]2C(=O)N[C@@H](Cc3ccccc3)C(=O)N2[C@H]1c1ccc(O)cc1` ?
Response given: 0.13
